- Tested on: SNB-19
- Test Details: NCI tumour cell line growth inhibition, 48 h
Activity calls are given as the source filed them. Cut-off read from the data, not from the text of the source: active = GI50 up to about 1.1 µM and inactive = higher.
Endpoint Label: GI50

// below: answered compounds
COc1c(O)c2c3c(c(C)cc(O)c3c1O)C(=O)C(O)(C(C)(C)C(C)=O)C2=O (stereo not given)	> 100 µM (inactive)
N#CC1C(=O)NC(=O)C(C#N)C1c1ccc(Cl)c(Cl)c1 (stereo not given)	91.2 µM (inactive)
C/C(=N/NC(=O)c1ccccc1S(N)(=O)=O)C(CN1CCCCC1)C(C1=C(O)C2C=CC=CC2OC1=O)c1ccccc1 (stereo not given)	87.7 µM (inactive)

Problem: For the compound `O=C1/C(=C/c2ccc(Cl)cc2)N=C(c2ccccc2)N1c1nc2ccc(Sc3ccccc3)cc2[nH]1` , what GI50 is on record?
Result: 37.6 µM (inactive)

Problem: What does the data say about its GI50? Entry: [N-]=[N+]=NC1C(O)C(CO)OC1n1ccc(=O)[nH]c1=O (stereo not given)
Result: > 875 µM (inactive)

----------
- Tested on: SN12C
- Test Details: NCI tumour cell line growth inhibition, 48 h
Calls of active or inactive are those of the source. Rule as the data show it: active = GI50 up to about 1.1 µM and inactive = higher.
# reported GI50; entries follow

Use these answered entries as a reference point.
O=C(Nc1ccccc1)O/N=C1/CCCC/C1=C\c1ccccc1	16.3 µM (inactive)
CCn1c2ccccc2c2cc(/N=N\c3ccc(C#N)cc3)ccc21	> 100 µM (inactive)
O=C1NC2(CN3CCC2CC3)C(=O)N1CN(Cc1ccccc1)c1ccccc1 (stereo not drawn)	71 µM (inactive)
O=C(CC1=NCCN1)c1ccccc1	> 750 µM (inactive)
COc1cc(C2SC(=N)Nc3c2c(C)nn3C(=O)c2ccccc2O)ccc1O (stereo not drawn)	> 2.64 µM (inactive)

Problem: Request the reported GI50 associated with [N-]=[N+]=NC(CI)c1cn([C@H]2C[C@H](O)[C@@H](CO)O2)c(=O)[nH]c1=O (stereo partly drawn)
Result: > 100 µM (inactive)

Problem: Return reported GI50; argument: CC1CCCC(C(O)CC2CC(=O)N(c3ccccc3)C(=O)C2)C1=O (stereo not drawn)
Result: > 100 µM (inactive)

Problem: Can you look up the measured GI50 of C=CCN1C(N)=C(C#N)C(C#N)(C#N)C1CCC (stereo not drawn) for me?
Result: > 100 µM (inactive)

Problem: // returns reported GI50 for input CCCCNC(=O)OCCN=C1c2ccccc2C(Br)C(Br)c2ccccc21 (stereo not drawn)
Result: 32.9 µM (inactive)

Problem: Which measured GI50 value corresponds to CC(=O)OC1CC2C(=O)CC1(C)C2(C)C (stereo not drawn) ?
Result: > 100 µM (inactive)

----------
- Test system: HT-29
- Test Details: NCI tumour cell line growth inhibition, 48 h
The source made the active and inactive calls. Cut-off read from the data, not from the text of the source: active = GI50 up to about 1.1 µM and inactive = higher.
Write down one outcome, taken from True (active), False (inactive)

The examples below pair each entry with its known result.
COc1cc(C2C(C(=O)Nc3ccccc3C)=C(C)NC(C)=C2C(=O)Nc2ccccc2C)ccc1O	False
O=C(CC(=O)Nc1ccccc1Cl)NNC(c1cc(/N=N/c2ccc(Br)cc2)ccc1O)P(O)O (stereo not drawn)	False

Kindly review the next compound as well.
Problem: Can you look up the reported call for C=C1C(=O)OC2C1CC[C@H](C)C1(O)C(O)CC(=O)[C@@]21C (stereo partly drawn) for me?
Result: False
